reported-property: IC50

Problem: Give recorded IC50 with human CYP3A4 (Homo sapiens) for the following compound: O=C(O)CN1C(=O)/C(=C/c2ccc(-c3ccc(Cl)c(Cl)c3)o2)SC1=S
Sequence (P08684 whole entry, looked up): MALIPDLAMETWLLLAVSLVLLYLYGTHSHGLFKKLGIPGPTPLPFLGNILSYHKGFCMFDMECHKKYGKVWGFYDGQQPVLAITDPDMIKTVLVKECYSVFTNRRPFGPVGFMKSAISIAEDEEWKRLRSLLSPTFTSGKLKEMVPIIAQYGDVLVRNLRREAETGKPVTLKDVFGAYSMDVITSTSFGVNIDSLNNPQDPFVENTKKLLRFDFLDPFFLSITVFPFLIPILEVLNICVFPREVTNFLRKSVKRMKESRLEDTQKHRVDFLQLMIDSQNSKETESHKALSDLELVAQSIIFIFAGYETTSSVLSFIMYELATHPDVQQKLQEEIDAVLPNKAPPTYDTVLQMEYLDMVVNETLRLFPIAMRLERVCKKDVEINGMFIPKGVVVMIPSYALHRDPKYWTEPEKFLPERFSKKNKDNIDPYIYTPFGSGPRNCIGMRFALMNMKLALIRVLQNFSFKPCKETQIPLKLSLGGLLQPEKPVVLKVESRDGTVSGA
Solution: > 50 µM

----------
pIC50: −log10 of the molar value.
reported-property: pIC50

Problem: Give recorded pIC50 with BoNT A (Clostridium botulinum, UniProt P0DPI0) for the following compound: O=C1/C(=C/c2cn(-c3ccccc3)nc2-c2ccc(Cl)cc2)SC(=S)N1C1CCS(=O)(=O)C1 (centres unmarked)
Sequence (P0DPI0 whole entry, looked up): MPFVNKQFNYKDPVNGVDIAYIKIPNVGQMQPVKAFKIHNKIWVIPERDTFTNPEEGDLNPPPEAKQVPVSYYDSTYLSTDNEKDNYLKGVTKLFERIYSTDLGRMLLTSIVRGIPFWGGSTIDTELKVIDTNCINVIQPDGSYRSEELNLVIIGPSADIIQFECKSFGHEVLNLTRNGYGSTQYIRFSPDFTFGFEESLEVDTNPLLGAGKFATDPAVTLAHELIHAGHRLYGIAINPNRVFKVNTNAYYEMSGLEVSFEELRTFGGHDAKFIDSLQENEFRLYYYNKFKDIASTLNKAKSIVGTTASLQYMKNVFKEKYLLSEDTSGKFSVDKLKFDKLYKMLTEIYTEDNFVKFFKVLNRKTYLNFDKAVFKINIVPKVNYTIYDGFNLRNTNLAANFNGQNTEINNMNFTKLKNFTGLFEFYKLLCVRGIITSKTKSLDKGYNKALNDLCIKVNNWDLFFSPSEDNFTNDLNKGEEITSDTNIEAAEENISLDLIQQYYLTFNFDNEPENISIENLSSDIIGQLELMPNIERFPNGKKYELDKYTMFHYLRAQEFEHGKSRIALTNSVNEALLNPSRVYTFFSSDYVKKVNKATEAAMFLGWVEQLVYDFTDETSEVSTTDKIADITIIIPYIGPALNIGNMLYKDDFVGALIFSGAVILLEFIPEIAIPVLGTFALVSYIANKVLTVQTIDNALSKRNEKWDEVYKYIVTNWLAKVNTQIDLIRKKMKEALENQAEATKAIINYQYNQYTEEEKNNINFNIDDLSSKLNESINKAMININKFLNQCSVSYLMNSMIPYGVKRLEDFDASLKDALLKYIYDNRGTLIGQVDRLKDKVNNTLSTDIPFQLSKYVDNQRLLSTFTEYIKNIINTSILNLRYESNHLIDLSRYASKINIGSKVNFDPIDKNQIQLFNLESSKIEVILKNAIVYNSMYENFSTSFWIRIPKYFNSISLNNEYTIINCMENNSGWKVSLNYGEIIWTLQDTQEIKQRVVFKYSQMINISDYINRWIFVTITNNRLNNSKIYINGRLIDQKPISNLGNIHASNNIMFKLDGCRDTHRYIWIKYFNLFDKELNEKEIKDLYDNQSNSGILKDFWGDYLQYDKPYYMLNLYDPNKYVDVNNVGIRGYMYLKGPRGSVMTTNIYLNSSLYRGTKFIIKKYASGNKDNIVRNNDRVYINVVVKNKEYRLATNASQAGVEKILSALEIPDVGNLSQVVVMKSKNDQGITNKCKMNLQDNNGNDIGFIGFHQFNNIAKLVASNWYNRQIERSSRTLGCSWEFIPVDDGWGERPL
Solution: < 3.70

Problem: Give recorded pIC50 with BoNT A (Clostridium botulinum, UniProt P0DPI0) for the following compound: O=C1/C(=C/c2ccc(-c3ccc(Cl)c(Cl)c3)o2)SC(=S)N1CCS(=O)(=O)O
Solution: 4.95

Problem: Give recorded pIC50 with BoNT A (Clostridium botulinum, UniProt P0DPI0) for the following compound: Cc1nc(/C=C2\SC(=S)N(CC(=O)O)C2=O)c(C)o1
Solution: < 3.70

Problem: Give recorded pIC50 with BoNT A (Clostridium botulinum, UniProt P0DPI0) for the following compound: O=C1/C(=C/c2cn(-c3ccccc3)nc2-c2ccccc2)SC(=S)N1C1CCS(=O)(=O)C1 (centres unmarked)
Solution: < 3.70

Problem: Give recorded pIC50 with BoNT A (Clostridium botulinum, UniProt P0DPI0) for the following compound: Cc1ccc2cc(/C=C3\SC(=S)N(CC(=O)O)C3=O)ccc2n1
Solution: < 3.70

Problem: Give recorded pIC50 with BoNT A (Clostridium botulinum, UniProt P0DPI0) for the following compound: O=C1/C(=C/c2ccc(-c3cc(Cl)ccc3Cl)o2)SC(=S)N1CC1CCCO1 (centres unmarked)
Solution: < 4.30

Problem: Give recorded pIC50 with BoNT A (Clostridium botulinum, UniProt P0DPI0) for the following compound: O=C(O)CN1C(=O)/C(=C/c2c[nH]nc2-c2ccc(C(F)(F)F)cc2)SC1=S
Solution: < 3.70

Problem: Give recorded pIC50 with BoNT A (Clostridium botulinum, UniProt P0DPI0) for the following compound: Cc1nc(-c2ccccc2)c(/C=C2\SC(=S)N(CC(=O)O)C2=O)s1
Solution: < 3.70

----------
Assignment: determine reported pIC50 for the given molecules.
target: UniProt P15917; experiment: biochemical; format: biochemical; conditions: pH 7.4; read-out: LF IC50
Sequence (P15917 34-809 limits assumed): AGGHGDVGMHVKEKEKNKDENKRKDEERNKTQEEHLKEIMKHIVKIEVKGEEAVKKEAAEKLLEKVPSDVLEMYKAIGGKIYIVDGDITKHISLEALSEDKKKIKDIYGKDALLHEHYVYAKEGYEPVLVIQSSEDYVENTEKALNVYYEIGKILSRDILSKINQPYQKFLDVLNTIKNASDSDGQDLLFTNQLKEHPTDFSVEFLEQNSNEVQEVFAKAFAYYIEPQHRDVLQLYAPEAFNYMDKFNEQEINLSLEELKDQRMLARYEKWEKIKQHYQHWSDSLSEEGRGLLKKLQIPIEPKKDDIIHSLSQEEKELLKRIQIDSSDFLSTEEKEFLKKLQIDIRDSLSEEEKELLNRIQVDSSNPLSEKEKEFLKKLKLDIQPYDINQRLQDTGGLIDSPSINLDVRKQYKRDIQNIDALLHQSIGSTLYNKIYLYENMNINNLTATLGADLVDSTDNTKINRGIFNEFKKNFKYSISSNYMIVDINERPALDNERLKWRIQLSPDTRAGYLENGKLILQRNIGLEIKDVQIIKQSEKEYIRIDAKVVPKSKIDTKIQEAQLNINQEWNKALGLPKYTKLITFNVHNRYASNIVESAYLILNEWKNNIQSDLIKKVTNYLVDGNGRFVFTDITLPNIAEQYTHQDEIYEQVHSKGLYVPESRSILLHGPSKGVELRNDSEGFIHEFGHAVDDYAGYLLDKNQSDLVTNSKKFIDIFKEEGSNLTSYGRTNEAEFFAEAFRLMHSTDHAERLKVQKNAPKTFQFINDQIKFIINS
Keep in mind that pIC50 stands for -log10 of concentration in molar terms.

Problem: So what's the measured pIC50 for this one? O=C(O)CN1C(=O)/C(=C/c2cn(-c3ccc(F)cc3F)nc2-c2cccnc2)SC1=S
Solution: 5.52

Problem: So what's the measured pIC50 for this one? O=C1/C(=C/c2cn(-c3ccccc3)nc2-c2ccc(S(=O)(=O)N3CCOCC3)cc2)SC(=S)N1CCS(=O)(=O)O
Solution: 5.73

Problem: So what's the measured pIC50 for this one? O=C(O)CN1C(=O)/C(=C/c2ccc3c(c2)OCO3)SC1=S
Solution: 4.08

Problem: So what's the measured pIC50 for this one? O=C(O)CN1C(=O)/C(=C2/C(=O)N(CC(=O)Nc3cccc(Cl)c3)c3ccccc32)SC1=S
Solution: 5.36

Problem: So what's the measured pIC50 for this one? CC(C)(C)OC(=O)N1CCC(c2nc(/C=C3\SC(=S)N(CC(=O)O)C3=O)cs2)CC1
Solution: 4.70

Problem: So what's the measured pIC50 for this one? O=C(O)CN1C(=O)/C(=C/c2cn(-c3ccccc3)nc2-c2ccc(S(=O)(=O)N3CCOCC3)cc2)SC1=S
Solution: 5.37

Problem: So what's the measured pIC50 for this one? O=C(O)CN1C(=O)/C(=C/c2sc(Br)c3c2OCCO3)SC1=S
Solution: 4.94

Problem: So what's the measured pIC50 for this one? O=C(O)C(c1ccccc1)N1C(=O)/C(=C/c2ccc(-c3ccc(Cl)cc3Cl)o2)SC1=S (centres unmarked)
Solution: 5.92

Source of measurements: patent US7947717B2
